growth for assorted compounds
Test system: M14 melanoma
Assay: NCI-60 one-dose screen, 48 h (100 = growth as untreated, 0 = no growth, -100 = all killed)
Conditions: 10 µM unless noted
Compounds without any hit were thinned out: in the full panel of roughly 83,000, 20% have a hit.
Your answer should be a plain number; it is taken to be in %.

Some compounds with recorded growth:
Compound	Unit descriptor	Value observed
CCc1ccc(CCN2C(=O)c3ccccc3C2=O)nc1	%	110
N#CCCCCCn1c2ccccc2c2c3c(c4c5ccccc5[nH]c4c21)C(=O)N(O)C3=O	%	11.9
NC(=O)SCC(=O)Nc1ccccc1-c1ccccc1	%	97.7
O=C(/C=C/c1ccccc1)CC(c1ccccc1)N1CCOCC1 (configuration not stated)	%	-35
NC(N)=N/N=C(/c1ccccc1)c1ccc(Cl)cc1	%	59.6
Cc1ccc(NC(=O)Nc2ccc(-c3cccnc3)cc2N2CCC(CO)CC2)cc1	%	27.1

Here is the next item to consider.
The compound "Cc1c(C)c(N2C(=O)C=CC2=O)c(C)c(C)c1N1C(=O)C=CC1=O" showed growth equal to 86.5

###

System: HCC-2998 colon
Assay: NCI-60 one-dose screen, 48 h (100 = growth as untreated, 0 = no growth, -100 = all killed)
Conditions: 10 µM unless noted
This is part of a sample that, as a whole, favours compounds with a hit. Of some 83,000 tested, about 20% had one in any assay. The source made the active and inactive calls. Rule for the calls: active = growth percent below 10; inactive = the rest.
growth for assorted molecules

Some molecules with recorded growth:
Molecule	Value observed
COc1cc([C@@H]2c3cc4c(cc3C(O[C@@H]3O[C@@H]5CO[C@@H](c6cccs6)OC5[C@H](O)[C@H]3O)C3COC(=O)[C@@H]32)OCO4)cc(OC)c1O (stereo not given in full)	-76.4% (active)
O=C(CCc1nnc(Cn2cncn2)o1)c1nc2ccccc2[nH]1	112% (inactive)
Cc1cc(C(C)(C)c2cc(C)c(O)c(CN(C)C)c2)cc(CN(C)C)c1O	82.1% (inactive)
CC(CCC(=O)O)(NC(=O)c1ccc([N+](=O)[O-])cc1)C(=O)O (stereo not given)	90.4% (inactive)
O=NC1CC=CCC1c1ccccc1 (stereo not given)	104% (inactive)

The molecule COc1ccc(C2=NN(C(C)=O)C(c3cc(OC)c(OC)c(OC)c3)C2)cc1 (stereo not given) showed growth equal to 94.9% (inactive)

The molecule "COc1cc2c(c(OC)c1OC)CCc1cnoc1-2" showed growth equal to 90.1% (inactive)

The molecule Cc1cc2c(cc1[N+](=O)[O-])NC(CNC(C)C)CC2 (stereo not given) showed growth equal to 86.6% (inactive)

The molecule "CC[N+](CC)(CCOCCOCC[N+](CC)(CC)Cc1ccc([N+](=O)[O-])cc1)Cc1ccc([N+](=O)[O-])cc1" showed growth equal to 98.1% (inactive)

The molecule "COc1ccc(/C=N/NC(=O)c2ccc(S(C)(=O)=O)cc2)cc1OC" showed growth equal to 98.5% (inactive)

The molecule "O=C1C(Cl)=C(N=Nc2c(Cl)c(O)c3ccccc3c2O)C(=O)c2ccccc21" showed growth equal to 74.4% (inactive)

The molecule "O=C1OC(c2ccc(-c3ccccc3)cc2)=C/C1=C/c1cccs1" showed growth equal to 112% (inactive)

The molecule "C=C(C)[C@@H]1C/C=C(/C=O)CC[C@@H]2O[C@@]2(C)CC/C=C(\C)CC1" showed growth equal to 126% (inactive)

The molecule "O=C(Nc1ccc(OCc2nnc(-c3ccccc3)o2)c(F)c1)Nc1ccc(Cl)c(C(F)(F)F)c1" showed growth equal to 14.4% (inactive)

The molecule "COc1ccc(-c2cncn2-c2ccc(-c3nc4cc(OC)c(OC)c(OC)c4s3)cc2)cc1N" showed growth equal to 80.5% (inactive)

The molecule "CCSc1nnc2n(Cc3ccccc3)c(=O)c3c(C)c(C(N)=O)sc3n12" showed growth equal to 101% (inactive)

The molecule "COc1ccc(-c2cnnn2-c2cc(OC)c3c(c2)OCO3)cc1" showed growth equal to -2.25% (active)

The molecule "CCc1[nH]nc(-c2ccc(OC)cc2)c1-c1ccccc1OCCN(CC)CC" showed growth equal to 103% (inactive)

The molecule "O=C(/C(=N/O)S(=O)(=O)c1ccccc1)c1cccs1" showed growth equal to 93.2% (inactive)

The molecule C[N+]1(CCc2ccccc2)CCC(CCC2CC[N+](C)(CCc3ccccc3)CC2)CC1 (stereo not given) showed growth equal to 101% (inactive)

###

System: MDA-MB-231 breast
Assay: NCI-60 one-dose screen, 48 h (100 = growth as untreated, 0 = no growth, -100 = all killed)
Details: 10 µM unless noted
About 83,000 compounds went through this panel and 20% of them were active in at least one assay; those are over-represented in the sample as a whole.
Recorded metric: growth (%)
Your answer should be a plain number; it is taken to be in %.

Molecule	Unit descriptor	growth
Cc1ccc(C(O)C2=CC(=O)c3ccccc3C2=O)cc1 (configuration not stated)	%	71.1

The molecule "Fc1ccc(-c2nnc(-c3c(-c4ccc(F)cc4)nc4ncccn34)o2)cc1" showed growth equal to 122

The molecule CCC(c1ccccc1)c1noc(CCN(CC)CC)n1 (configuration not stated) showed growth equal to 106

The molecule CC(O)c1nc2c(c(=O)n(C)c(=O)n2C)n1C (configuration not stated) showed growth equal to 117

The molecule "N#CCNc1ccccc1N" showed growth equal to 101

The molecule COc1ccc(C2CC(c3cccc(Nc4ccnc5cc(Cl)ccc45)c3)=NN2C=O)cc1 (configuration not stated) showed growth equal to 24.3

The molecule "O=C1Cc2cc(CCn3cncn3)c(Cl)cc2N1" showed growth equal to 56

###

growth for assorted compounds
Test system: NCI-H23 lung
Test: NCI-60 one-dose screen, 48 h (100 = growth as untreated, 0 = no growth, -100 = all killed)
Details: 10 µM unless noted
About 83,000 compounds went through this panel and 20% of them were active in at least one assay; those are over-represented in the sample as a whole.
Your answer should be a plain number; it is taken to be in %.

Compound	growth / %
Fc1ccc([C@@H]2CCNC[C@H]2COc2ccc3c(c2)OCO3)cc1	82.5
C=CC1=C(C(=O)O)N2C(=O)[C@@H](NC(=O)/C(=N\O)c3csc(N)n3)[C@H]2SC1 (stereo in doubt)	96

Here is the next item to consider.
The compound C[N+]1(CCC[N+]2(C)C[C@@H]3[C@H](C2)[C@@H]2C=C[C@H]3C2)CCOCC1 (stereo partly drawn) showed growth equal to 105

###

Test system: COLO 205 colon
Experiment: NCI-60 one-dose screen, 48 h
Conditions: 10 µM unless noted
This is part of a sample that, as a whole, favours compounds with a hit. Of some 83,000 tested, about 20% had one in any assay. Calls of active or inactive are those of the source. Rule for the calls: active = growth percent below 10; inactive = the rest.
Respond with a class label; see YES for active, NO for inactive

Please review the entries below; each comes with its answer.
Compound	Category label
O=C(Nc1nc2ccccc2s1)c1cc(-c2ccc(F)cc2)n2nc(-c3ccccc3)cc2n1	NO
[O-]/[N+](=C\C=C\c1ccccc1)c1ccccc1	NO
CCOC(=O)c1c(C)c(C(=O)OCC)n(C)c1C	NO
CCC1=C(c2ccc(OC)cc2)C(C)Oc2cc(OC(C)=O)ccc21 (stereo not given)	NO

Task: Per the records of this test, what outcome belongs to "CCN(CC)CCOc1ccc(C2=C(c3ccccc3)CCc3cc(OC)ccc32)cc1" ?
Output: YES

###

Tested on: HCT-15 colon
Experiment: NCI-60 one-dose screen, 48 h (100 = growth as untreated, 0 = no growth, -100 = all killed)
Conditions: 10 µM unless noted
This is part of a sample that, as a whole, favours compounds with a hit. Of some 83,000 tested, about 20% had one in any assay.
growth for assorted molecules
Your answer should be a plain number; it is taken to be in %.

Molecule	Unit descriptor	growth
Nc1nonc1-c1nc2ccccc2n1CC(=O)Nc1ccc2c(c1)COC2=O	%	70.5
Cc1[nH]n(C(N)=S)c(=O)c1N=Nc1ccc(F)c(Cl)c1	%	104
CCC(CC)NCCCCCNc1cc(OC)cc2cccnc12	%	92.6

Here is the next item to consider.
The molecule "COc1cccc2c1O/C(=C\c1c([N+](=O)[O-])ncn1C)C2=O" showed growth equal to 91.4

###

Test system: NCI-H226 lung
Test: NCI-60 one-dose screen, 48 h (100 = growth as untreated, 0 = no growth, -100 = all killed)
Details: 10 µM unless noted
About 83,000 compounds went through this panel and 20% of them were active in at least one assay; those are over-represented in the sample as a whole.
growth for assorted molecules
Your answer should be a plain number; it is taken to be in %.

Molecule	Unit descriptor	growth
C[N+]1(CCC[N+]2(C)C[C@@H]3[C@H](C2)[C@@H]2C=C[C@H]3C2)CCOCC1 (some centres not stated)	%	110
O=C(COC(=O)[C@H](C[Se][Se]C[C@H](NC(=O)c1ccc(Br)cc1F)C(=O)OCC(=O)c1ccc(F)cc1)NC(=O)c1ccc(Br)cc1F)c1ccc(F)cc1	%	-73.2
CC(C)c1ccc(C(=O)Nc2sc3c(CN(C)C)c(O)ccc3c2C(N)=O)cc1	%	86.9
CCC(C)CC(C)C(=O)c1c(O)ccn(OC)c1=O (configuration not stated)	%	84.2
O=C(/C=C/c1cc2ccccc2[nH]c1=O)c1ccc(O)cc1	%	98.7

The molecule "O=C(/C(=C/c1cccc([N+](=O)[O-])c1)c1ccccc1)c1ccccc1" showed growth equal to 58.8

The molecule "COc1ccc2c(c1)nc(N)c1c3cc(OC)c(OC)cc3cn21" showed growth equal to 78.2

The molecule "COc1ccc2c(c1)[nH]c(=O)c1c3cc(OC)c(OC)cc3cn21" showed growth equal to 44.6
